Test system: Symmetric Di-methyl Arginine (SDMA) signal (PRMT5 inhibition) in HCT116 MTAP-deleted cells
assay name: Symmetric di-methyl arginine image-based high content screen assay (SDMA assay), HCT116 MTAP-deleted
Type: cell-based
test parameters: Homo sapiens, HCT-116, HCT116 MTAP-deleted, class symbols
recorded metric: EC50

// worked examples, EC50 included
| compound | EC50 |
| --- | --- |
| Nc1nc2cc(F)c(C(=O)N(Cc3ccc(-c4cnn(C(F)(F)F)c4)cc3F)C34CC(C3)C4)cc2n2cncc12 | 1 to 5 nM |
| CN(C(=O)c1cc2c(cc1Br)nc(N)c1cncn12)[C@@H]1COc2cc(C(F)(F)F)ccc21 | ≤ 1 nM |
| Nc1nc2ccc(C(=O)N3CCC[C@@H]4Oc5cc(S(F)(F)(F)(F)F)ccc5[C@@H]43)cc2n2cncc12 | ≤ 1 nM |
| C[C@@H]1CC2Cc3cc(C(F)(F)F)ccc3[C@@H]2N(C(=O)c2cc3c(cc2F)nc(N)c2cncn23)C1 (mixture of isomers) | 1 to 5 nM |
| Nc1nc2ccc(C(=O)N(Cc3ccc(C(F)(F)F)cn3)N3CCOCC3)cc2c2cncn12 | > 5 nM |
| Nc1nc2ccc(C(=O)N(Cc3cc4ccccn4n3)C34CC(C3)C4)cc2c2cncn12 | > 5 nM |
| Cc1ncc2c(N)nc3ccc(C(=O)N(C)[C@@H]4COc5cc(C#CC6(C)COC6)ccc54)cc3n12 | 1 to 5 nM |
| C[C@H](c1ncccn1)N(Cc1ccc(C(F)(F)F)cn1)C(=O)c1cc2c(cc1F)nc(N)n1cncc21 | 1 to 5 nM |

Query: State the recorded EC50 for this entry: "Nc1nc2ccc(C(=O)N(Cc3ccc(C(F)(F)F)cc3F)C3COC3)cc2n2cncc12"
Response: > 5 nM

###

Tested on: HCT116 MTAP-deleted cell lines
assay name: Cell viability assay (CellTiter-Glo, 7 days), HCT116 MTAP-deleted
Assay type: cell-based
test parameters: Homo sapiens, HCT-116; cell viability assay, HCT116 MTAP-deleted; class symbols; read-out: CC50
recorded metric: CC50

| compound | CC50 |
| --- | --- |
| C[C@H]1C[C@@H]2Oc3cc(C(F)(F)F)ccc3[C@@H]2N(C(=O)c2cc3c(cn2)nc(N)c2cncn23)C1 (single isomer, unassigned) | < 100 nM |
| Cc1ncn2c1c(N)nc1ccc(C(=O)N3C[C@H](C)O[C@@H]4Cc5cc(OC(F)(F)F)ccc5[C@@H]43)cc12 (single isomer, unassigned) | < 100 nM |
| Cc1ncc2c(N)nc3cnc(C(=O)N4CC[C@H]5C[C@@H]4c4ccc(C(F)(F)F)cc4O5)cc3n12 | < 100 nM |
| Nc1nc2cc(C3CC3)c(C(=O)N3CCC[C@@H]4Oc5cc(C(F)(F)F)ccc5[C@@H]43)cc2n2cncc12 | 100 to 1000 nM |
| Cc1ncn2c1c(N)nc1cc(F)c(C(=O)N(C)[C@@H]3COc4cc([C@@H]5C[C@H]5C#N)c(F)cc43)cc12 | < 100 nM |
| COc1cc(-c2cnn(C(F)(F)F)c2)ccc1CN(C)C(=O)c1cc2c(cc1F)nc(N)c1cncn12 | 100 to 1000 nM |
| C[C@H]1C[C@@H]2Oc3cc(OC(F)(F)F)ccc3[C@@H]2N(C(=O)c2cc3c(cn2)nc(N)c2cncn23)C1 | < 100 nM |
| CN(C(=O)c1cc2c(cc1F)nc(N)c1cncn12)C1CCc2sccc21 (centres unmarked) | 100 to 1000 nM |

Query: State the recorded CC50 for this entry: "Nc1nc2ccc(C(=O)N3CCC[C@@H]4Oc5cc(C(F)(F)F)c(F)cc5[C@@H]43)cc2n2cncc12"
Response: < 100 nM

Query: And what about the compound "CC1(N(Cc2ccc(C(F)(F)F)cn2)C(=O)c2cc3c(cc2F)nc(N)c2cncn23)CC1" ?
Response: < 100 nM

Query: And what about the compound "CN(C(=O)c1cc2c(cc1Br)nc(N)c1cncn12)[C@@H]1COc2cc(C(F)(F)F)ccc21" ?
Response: < 100 nM

Reference for the values: patent US12448388B2
